Data provenance is paper PMC6479099.

experiment: In vitro cytotoxicity, murine macrophage cells
test settings: mouse
outcome measure: GI50 (µM)
Respond with the bare value in µM.

# input compound: `N=C(N/N=C/c1ccc(Cl)cc1)N/N=C/c1ccc(Cl)cc1` ; wanted: its GI50 17.1

* * *

System: Giardia duodenalis BAH2c2 strain, assemblage A
experiment: Resazurin reduction assay, assemblage A isolate
Assay type: cell-based
test settings: Giardia duodenalis, 24 h, BAH2c2, 24 h, resazurin metabolic assay; read-out: IC50, Assemblage A
outcome measure: IC50 (µM)
Numeric answer only, unit µM assumed.

Reported IC50 for `Cc1ncc([N+](=O)[O-])n1CCO` : what is it? 2

Try this compound too: `N=C(N/N=C/c1ccc(Cl)cc1)N/N=C/c1ccc(Cl)cc1` 2

Moving on to the next compound: `C/C(=N\NC(=N)N/N=C(\C)c1ccc(Cl)cc1)c1ccc(Cl)cc1.Cl` 0.8

What do you have for `CC(C)(C)c1ccc(/C=N/NC(=N)N/N=C/c2ccc(C(C)(C)C)cc2)cc1.Cl` ? 3
